Test system: up to 32 different microorganisms
assay: in vitro antibacterial activity (MIC), agar dilution on Brain Heart Infusion (BHI) agar with Steers replicator
Type: cell-based
conditions-used: Streptococcus bovis A-5169 (code JJ); unit assumed
measurement-type: MIC (µg/mL)
Express the result in µg/mL but write the number alone.

>>> test_result("CCCO[C@@]1(C)C[C@@H](C)C(=O)[C@H](C)[C@@H](O)[C@](C)(O)[C@@H](CC)OC(=O)[C@H](C)C(=O)[C@H](C)[C@H]1O[C@@H]1O[C@H](C)C[C@H](N(C)C)[C@H]1O [Example 3]")
25
>>> test_result("C=CCOC1(C)CC(C)C(=NO)C(C)C(O)C(C)(O)C(CC)OC(=O)C(C)C(=O)C(C)C1OC1OC(C)CC(N(C)C)C1O (stereo not drawn) [Example 2]")
3.1

Here is another molecule to look at.
Measured MIC of C=CCOC1(C)CC(C)C(=O)C(C)C2N(CC=C)C(=O)OC2(C)C(CC)OC(=O)C(C)C(=O)C(C)C1OC1OC(C)CC(N(C)C)C1O (stereo not drawn) [Example 183] : 0.78

====

Tested on: up to 32 different microorganisms
assay: in vitro antibacterial activity (MIC), agar dilution on Brain Heart Infusion (BHI) agar with Steers replicator
Format: cell-based
conditions-used: organism code QQ; unit assumed
Method: Representative compounds of the present invention were assayed in vitro for antibacterial activity as follows: Twelve petri dishes containing successive aqueous dilutions of the test compound mixed with 10 mL of sterilized Brain Heart Infusion (BHI) agar (Difco 0148-01-5) were prepared. Each plate was inoculated with 1:100 (or 1:10 for slow-growing strains, such as Micrococcus and Streptococcus) dilutions of up to 32 different microorganisms, using a Steers replicator block. […]
measurement-type: MIC

Check out these entries, answers already filled in.
>>> test_result("CCC1OC(=O)C(C)C(=O)C(C)C(OC2OC(C)CC(N(C)C)C2O)C(C)(OCC#CC=Cc2ccccc2)CC(C)C(=O)C(C)C2NC(=O)OC12C (centres unmarked) [Example 291]")
"25 µg/mL"
>>> test_result("CC[C@H]1OC(=O)[C@H](C)C(=O)[C@H](C)[C@@H](O[C@@H]2O[C@H](C)C[C@H](N(C)C)[C@H]2O)[C@@](C)(OCC=NOCc2ccnc3ccccc23)C[C@@H](C)C(=O)[C@H](C)[C@H]2NC(=O)O[C@@]21C [Example 231]")
"100 µg/mL"
>>> test_result("CCC1OC(=O)C(C)C(=O)C(C)C(OC2OC(C)CC(N(C)C)C2O)C(C)(OCCCc2cnc3ccccc3c2)CC(C)C(=O)C(C)C2NC(=O)OC12C (centres unmarked) [Example 242]")
"> 100 µg/mL"
>>> test_result("CC[C@H]1OC(=O)[C@H](C)C(=O)[C@H](C)[C@@H](O[C@@H]2O[C@H](C)C[C@H](N(C)C)[C@H]2O)[C@@](C)(OCC=NNC(=O)c2ccccc2)C[C@@H](C)C(=O)[C@H](C)[C@H]2NC(=O)O[C@@]21C [Example 241]")
"> 100 µg/mL"

// MIC value for CCC1OC(=O)C(C)C(=O)C(C)C(OC2OC(C)CC(N(C)C)C2O)C(C)(OCC=Cc2cnc3ccc(O)cc3c2)CC(C)C(=O)C(C)C2NC(=O)OC12C (centres unmarked) [Example 208, R is —CH2CH═CH-(6-hydroxy-3-quinolyl)] : 25 µg/mL

====

MIC reference
System: up to 32 different microorganisms
assay: in vitro antibacterial activity (MIC), agar dilution on Brain Heart Infusion (BHI) agar with Steers replicator
Assay type: cell-based
conditions-used: organism code CC; unit assumed

>>> test_result("CC[C@H]1OC(=O)[C@H](C)C(=O)[C@H](C)[C@@H](O[C@@H]2O[C@H](C)C[C@H](N(C)C)[C@H]2O)[C@@](C)(OCC=NOCc2cnc3ccccc3c2)C[C@@H](C)C(=O)[C@H](C)[C@H]2NC(=O)O[C@@]21C")
"> 100 µg/mL"

According to the records, this molecule `CC[C@H]1OC(=O)[C@H](C)C(=O)[C@H](C)[C@@H](O[C@@H]2O[C@H](C)C[C@H](N(C)C)[C@H]2O)[C@@](C)(OCCNCc2cnc3ccccc3c2)C[C@@H](C)C(=O)[C@H](C)[C@H]2NC(=O)O[C@@]21C` displays MIC of > 100 µg/mL

====

Test system: up to 32 different microorganisms
assay: in vitro antibacterial activity (MIC), agar dilution on Brain Heart Infusion (BHI) agar with Steers replicator
Format: cell-based
conditions-used: Streptococcus pyogenes PIU 2548 (code NN); unit assumed
measurement-type: MIC (µg/mL)
Number only, in µg/mL; omit the unit.

// solved cases for MIC follow
>>> test_result("CC[C@H]1OC(=O)[C@H](C)C(=O)[C@H](C)[C@@H](O[C@@H]2O[C@H](C)C[C@H](N(C)C)[C@H]2O)[C@@](C)(OCC=Cc2cnc3ccccc3c2)C[C@@H](C)C(=O)[C@H](C)[C@H]2OC(=O)O[C@@]21C")
0.1
>>> test_result("CCC1OC(=O)C(C)C(=O)C(C)C(OC2OC(C)CC(N(C)C)C2OC(C)=O)C(C)(OCC=Cc2cnc3ccccc3c2)CC(C)C(=O)C(C)C2NC(=O)OC12C (centres unmarked)")
0.1

The molecule listed as `CC[C@H]1OC(=O)[C@H](C)C(=O)[C@H](C)[C@@H](O[C@@H]2O[C@H](C)C[C@H](N(C)C)[C@H]2O)[C@@](C)(OCC=Cc2ccccc2)C[C@@H](C)C(=O)[C@H](C)[C@H]2NC(=O)O[C@@]21C` shows MIC equal to 0.1

MIC reported for this molecule `CC[C@H]1OC(=O)[C@H](C)C(=O)[C@H](C)[C@@H](O[C@@H]2O[C@H](C)C[C@H](N(C)C)[C@H]2O)[C@@](C)(OCC=Cc2cnc3ccccc3c2)C[C@@H](C)C(=O)[C@H](C)[C@H]2NC(=O)O[C@@]21C` : 0.1

The reported value for CCC1OC(=O)C(C)C(=O)C(C)C(OC2OC(C)CC(N(C)C)C2O)C(C)(OCC=Cc2cccc3ncccc23)CC(C)C(=O)C(C)C2NC(=O)OC12C (centres unmarked) in terms of MIC is 0.2

====

Measured log10 MIC accompanies every entry in the list below.
Test system: up to 32 different microorganisms
assay: in vitro antibacterial activity (MIC), agar dilution on Brain Heart Infusion (BHI) agar with Steers replicator
Format: cell-based
conditions-used: organism code HH; unit assumed
Scale: decimal log of MIC, MIC in µg/mL.

>>> test_result("CCC1OC(=O)C(C)C(=O)C(C)C(OC2OC(C)CC(N(C)C)C2O)C(C)(OCC=Cc2cnc3ccc(C(N)=O)cc3c2)CC(C)C(=O)C(C)C2NC(=O)OC12C (centres unmarked) [Example 217]")
-0.41
>>> test_result("CCC1OC(=O)C(C)C(=O)C(C)C(OC2OC(C)CC(N(C)C)C2O)C(C)(OCC(O)c2ccccc2)CC(C)C(=O)C(C)C2NC(=O)OC12C (single isomer, unassigned) [Example 261B]")
0.79
>>> test_result("CCC1OC(=O)C(C)C(=O)C(C)C(OC2OC(C)CC(N(C)C)C2O)C(C)(OCC=Cc2ccc(C)c3ccccc23)CC(C)C(=O)C(C)C2NC(=O)OC12C (centres unmarked) [Example 276]")
-0.11
>>> test_result("CCC1OC(=O)C(C)C(=O)C(C)C(OC2OC(C)CC(N(C)C)C2O)C(C)(OCC=Cc2cnc3cccc([N+](=O)[O-])c3c2)CC(C)C(=O)C(C)C2NC(=O)OC12C (centres unmarked) [Example 210, R is —CH2CH═CH-(5-nitro-3-quinolyl)]")
-1.00

Switching to the query record.
Field log10 MIC (system: up to 32 different microorganisms) for entry CC[C@H]1OC(=O)[C@H](C)C(=O)[C@H](C)[C@@H](O[C@@H]2O[C@H](C)C[C@H](N(C)C)[C@H]2O)[C@@](C)(OCCNCCCc2cnc3ccccc3c2)C[C@@H](C)C(=O)[C@H](C)[C@H]2NC(=O)O[C@@]21C [Example 225] = -0.70

====

System: up to 32 different microorganisms
assay: in vitro antibacterial activity (MIC), agar dilution on Brain Heart Infusion (BHI) agar with Steers replicator
Format: cell-based
conditions-used: Nocardia Asteroides ATCC9970 (code VV); unit assumed
Experimental: Representative compounds of the present invention were assayed in vitro for antibacterial activity as follows: Twelve petri dishes containing successive aqueous dilutions of the test compound mixed with 10 mL of sterilized Brain Heart Infusion (BHI) agar (Difco 0148-01-5) were prepared. Each plate was inoculated with 1:100 (or 1:10 for slow-growing strains, such as Micrococcus and Streptococcus) dilutions of up to 32 different microorganisms, using a Steers replicator block. […]
Known MIC of a selection of compounds
Number in µg/mL, nothing else.

// below: answered compounds
>>> test_result("CC[C@H]1OC(=O)[C@H](C)C(=O)[C@H](C)[C@@H](O[C@@H]2O[C@H](C)C[C@H](N(C)C)[C@H]2O)[C@@](C)(OCC=Cc2ccc(OC)cc2)C[C@@H](C)C(=O)[C@H](C)[C@@H](O)[C@]1(C)O [Example 16]")
1.56
>>> test_result("CC[C@H]1OC(=O)[C@H](C)C(=O)[C@H](C)[C@@H](O[C@@H]2O[C@H](C)C[C@H](N(C)C)[C@H]2O)[C@@](C)(OCC=Cc2ccccc2)C[C@@H](C)C(=O)[C@H](C)[C@@H](O)[C@]1(C)O [Example 14]")
3.1
>>> test_result("CC[C@H]1OC(=O)[C@H](C)C(=O)[C@H](C)[C@@H](O[C@@H]2O[C@H](C)C[C@H](N(C)C)[C@H]2O)[C@@](C)(OCCNCc2ccccc2)C[C@@H](C)C(=O)[C@H](C)[C@@H](O)[C@]1(C)O [Example 9]")
0.2

Notebook: CC[C@H]1OC(=O)[C@H](C)C(=O)[C@H](C)[C@@H](O[C@@H]2O[C@H](C)C[C@H](N(C)C)[C@H]2O)[C@@](C)(OCCNCCc2ccccc2)C[C@@H](C)C(=O)[C@H](C)[C@@H](O)[C@]1(C)O [Example 10] , MIC read as 1.56

For C=CCO[C@@]1(C)C[C@@H](C)C(=O)[C@H](C)[C@H]2OC(=O)O[C@]2(C)[C@@H](CC)OC(=O)[C@H](C)C(=O)[C@H](C)[C@H]1O[C@@H]1O[C@H](C)C[C@H](N(C)C)[C@H]1O [Example 71] the compound record lists MIC as 0.39

MIC reading for C=CCO[C@@]1(C)C[C@@H](C)C(=O)[C@H](C)[C@H]2N(C)C(=O)O[C@]2(C)[C@@H](CC)OC(=O)[C@H](C)C(=O)[C@H](C)[C@H]1O[C@@H]1O[C@H](C)C[C@H](N(C)C)[C@H]1O [Example 179] : 3.1

Lookup result for CCC1OC(=O)C(C)C(=O)C(C)C(OC2OC(C)CC(N(C)C)C2O)C(C)(OCC=Cc2cccc([N+](=O)[O-])c2)CC(C)C(=O)C(C)C2NC(=O)OC12C (stereo not drawn) [Example 193, R is —CH2CH═CH-(3-nitrophenyl)] ; measured MIC: 0.05

Field MIC (entry CC[C@H]1OC(=O)[C@H](C)C(=O)[C@H](C)[C@@H](O[C@@H]2O[C@H](C)C[C@H](N(C)C)[C@H]2O)[C@@](C)(OCC#N)C[C@@H](C)C(=O)[C@H](C)[C@@H](O)[C@]1(C)O [Example 7] ) reads 0.78
